Tested on: HCC-2998 colon
ASSAY_EXPLANATION: NCI-60 one-dose screen, 48 h
CONDITION_DESCRIPTION: 10 µM unless noted
About 83,000 compounds went through this panel and 20% of them were active in at least one assay; those are over-represented in the sample as a whole. Activity calls are given as the source filed them. The calls were made as follows: active = growth percent below 10; inactive = the rest.
// classify into Yes for active, No for inactive

Worked examples follow.
Ask | Given `NCCCN1CCCC1=O` , state the outcome it received in this test.
Reply | No

Ask | Repeat with `O=C1NC(=O)/C(=C\c2ccncc2)N1`
Reply | No

Ask | Repeat with `Oc1cccc(CNC2CCCCC2)c1`
Reply | No

Ask | Repeat with `CC(=O)O[C@H]1CC[C@]2(C)C3=C(C(=O)C[C@H]2C1(C)C)[C@]1(C)CC[C@H]([C@H](C)CCC(=O)O)[C@@]1(C)CC3=O`
Reply | No

Others:
Ask | Given C#CC(O)c1ccccc1 (configuration not stated) , state the outcome it received in this test.
Reply | No

Ask | Repeat with `Cc1cc2c3ccc(C)[n+](C)c3ccc2n1C`
Reply | No

Ask | Repeat with `O=C(O)CSCC(=O)Nc1cc(C(F)(F)F)ccc1Cl`
Reply | No

Ask | Repeat with `O=S(=O)(O)c1ccc(O)c(C2CCCCC2)c1`
Reply | No

Ask | Repeat with `C=COC(=O)C(C)(C)C`
Reply | No

Ask | Repeat with `CCOP(=O)(NC(c1ccccc1)c1ccccc1)OCC`
Reply | No

Ask | Repeat with `Oc1cc2ccccc2c(-c2c(O)c(O)cc3ccccc23)c1O`
Reply | No

Ask | Repeat with `Cc1ccc(S(=O)(=O)Oc2ccc3sc4c(CO)ccc(NCCN(C)C)c4c(=O)c3c2)cc1`
Reply | Yes

Ask | Repeat with `c1ccc2[nH]c(Cc3nc4ccccc4[nH]3)nc2c1`
Reply | No

Ask | Repeat with CC(=O)OCC1CCC(COC(C)=O)CC1 (configuration not stated)
Reply | No

Ask | Repeat with `NC(CCl)=NCC12CC3CC(CC(C3)C1)C2`
Reply | Yes

Each recorded value in this set is attributed to PubChem BioAssay (NCI).
